Provenance of the data: PubChem BioAssay (NCATS)

- ASSAY METHOD TEXT: qHTS assay for small molecule antagonists of peroxisome proliferator-activated receptor delta signaling (AID 588535);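 further: cells co-treated with a PPAR-delta agonist as stimulator during compound exposure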
- SETTINGS: HEK293T PPARd-UAS-bla, beta-lactamase FRET ratio, 18 h; 460 nm channel
Records with an inconclusive call do not appear.
Listing: max response of selected compounds
Give the value, in units of %, as a plain number.

Worked examples, 5 compounds total:
| COMPOUND | UNIT STRING | max response |
| --- | --- | --- |
| CC(C)C[C@H](NC(=O)OCC1c2ccccc2-c2ccccc21)C(=O)O | % | 59 |
| CCCCN(CCCC)CCCC | % | 31.3 |
| CCCCC(CC)COC(C)=O (stereo not drawn) | % | 8.6 |
| CCCCC(CC)COC(=O)c1ccc(C(=O)OCC(CC)CCCC)cc1 (stereo not drawn) | % | -1.09 |
| CCc1c(C(=O)O)c(=O)cnn1-c1ccc(Cl)cc1 | % | 48.3 |

Next compound, please.
[ask] Query: max response; subject: `CC(C)CCCCCCCCCCCCCCC(=O)O`
[reply] 7.35
